tested on: PSN-1 human pancreatic carcinoma cells; assay: MTT cytotoxicity test, 72 h; format: cell-based; details: PSN-1, MTT
IC50 under 5 µM gets label 1, anything at or over 5 µM gets label 0.

{"molecule": "CC(=O)[O][Pt]1([Cl])[O]C(=O)C(=O)[O]1.NC1CC=CCC1N (racemic) [Complex 5, cis,trans,cis-[Pt(OXA)(AcO)Cl(DACHEX)]]", "class": "label 1"}
{"molecule": "O=C1[O][Pt]2([NH][C@@H]3CCCC[C@H]3[NH]2)[O]C1=O [OXP, oxaliplatin, reference compound]", "class": "label 0"}

QUERY: API: query returns whether the molecule falls strictly under 5 µM in IC50. Query: NC1CC=CCC1N.O=C([O-])C(=O)[O-].O=C([O-])c1ccccc1.O=C([O-])c1ccccc1.[Pt+4] (mixture of isomers) [Complex 3, cis,trans,cis-[Pt(OXA)(BzO)2(DACHEX)]]
RESULT: label 1

QUERY: Given NC1CC=CCC1N.O=C1[O][Pt]([OH])([Cl])[O]C1=O (racemic) [Complex 6, cis,trans,cis-[Pt(OXA)(OH)Cl(DACHEX)]] , is recorded IC50 strictly lower than 5 µM?
RESULT: label 0

---

experiment: XPS Pt4f surface reduction of Pt(IV) to Pt(II) under X-ray irradiation; format: physicochemical; conditions: after 30 min irradiation, calculated from Pt(IV) abundances
readout label: % of Reduction (%)
Numbers only; they are read as %.

Worked examples follow.
{"compound": "CC(=O)[O][Pt]1([O]C(C)=O)[O]C(=O)C(=O)[O]1.NC1CC=CCC1N [Complex 2, cis,trans,cis-[Pt(OXA)(AcO)2(DACHEX)]]", "% of Reduction / %": 65}
{"compound": "CC(=O)[O][Pt]1([Cl])[O]C(=O)C(=O)[O]1.NC1CC=CCC1N (racemic) [Complex 5, cis,trans,cis-[Pt(OXA)(AcO)Cl(DACHEX)]]", "% of Reduction / %": 67}
{"compound": "NC1CC=CCC1N.O=C1[O][Pt]([Cl])([Cl])[O]C1=O (racemic) [Complex 4, cis,trans,cis-[Pt(OXA)Cl2(DACHEX)]]", "% of Reduction / %": 67}

QUERY: Indicate the recorded % of Reduction value for this compound: NC1CC=CCC1N.O=C([O-])C(=O)[O-].O=C([O-])c1ccccc1.O=C([O-])c1ccccc1.[Pt+4] (mixture of isomers) [Complex 3, cis,trans,cis-[Pt(OXA)(BzO)2(DACHEX)]]
RESULT: 66

QUERY: Read off the recorded % of Reduction for NC1CC=CCC1N.O=C1[O][Pt]([OH])([Cl])[O]C1=O (racemic) [Complex 6, cis,trans,cis-[Pt(OXA)(OH)Cl(DACHEX)]]
RESULT: 64

---

system: HCT-15 human colon carcinoma cells; test: MTT cytotoxicity test, 72 h; type: cell-based; conditions: HCT-15, MTT
readout label: IC50 (nM)
Provide the reading as a plain figure in nM.

QUERY: Indicate the recorded IC50 value for this substance: cis,trans,cis-[Pt(OXA)(OH)2(DACHEX)] [Complex 1]
RESULT: 440

---

Assay: Cyclic voltammetry, cathodic reduction potential in aqueous solution
Type: physicochemical
Details: values normalized vs. SCE; phosphate buffer pH 7.4, 5 mM NaCl, 5·10^−4 M complex, scan rate 0.020 V s^−1
Protocol: The electrochemical characterization of compounds 1–6, performed by using cyclic voltammetry (CV), was carried out with the aim of determining the cathodic reduction potentials in aqueous solution (Ep^c). Cyclic voltammetry (CV) measurements were carried out with a potentiostat CHI 1230B (CH Instruments, Inc., Austin, TX, USA) in a standard three-electrode electrochemical cell. […]
Items are presented alongside their recorded Cathodic reduction potential Ep^c.
Numbers only here, please. The scale is V.

{"molecule": "NC1CC=CCC1N.O=C([O-])C(=O)[O-].O=C([O-])c1ccccc1.O=C([O-])c1ccccc1.[Pt+4] (mixture of isomers) [Complex 3, cis,trans,cis-[Pt(OXA)(BzO)2(DACHEX)]]", "readout label": "Cathodic reduction potential Ep^c", "value": "−0.99"}
{"molecule": "NC1CC=CCC1N.O=C1[O][Pt]([Cl])([Cl])[O]C1=O (racemic) [Complex 4, cis,trans,cis-[Pt(OXA)Cl2(DACHEX)]]", "readout label": "Cathodic reduction potential Ep^c", "value": "−0.72"}
{"molecule": "NC1CC=CCC1N.O=C1[O][Pt]([OH])([Cl])[O]C1=O (racemic) [Complex 6, cis,trans,cis-[Pt(OXA)(OH)Cl(DACHEX)]]", "readout label": "Cathodic reduction potential Ep^c", "value": "−0.48"}
{"molecule": "CC(=O)[O][Pt]1([Cl])[O]C(=O)C(=O)[O]1.NC1CC=CCC1N (racemic) [Complex 5, cis,trans,cis-[Pt(OXA)(AcO)Cl(DACHEX)]]", "readout label": "Cathodic reduction potential Ep^c", "value": "−0.82"}

Now look at this entry.
QUERY: Specify measured Cathodic reduction potential Ep^c for CC(=O)[O][Pt]1([O]C(C)=O)[O]C(=O)C(=O)[O]1.NC1CC=CCC1N [Complex 2, cis,trans,cis-[Pt(OXA)(AcO)2(DACHEX)]] .
RESULT: −1.03

---

tested on: LoVo human colon carcinoma cells; assay: MTT cytotoxicity test, 72 h; format: cell-based
Examples of compounds with documented IC50 follow.
Kindly provide the numeric value in nM only, without the unit symbol.

Solved cases (3 shown):
{"compound": "NC1CC=CCC1N.O=C([O-])C(=O)[O-].O=C([O-])c1ccccc1.O=C([O-])c1ccccc1.[Pt+4] (mixture of isomers) [Complex 3, cis,trans,cis-[Pt(OXA)(BzO)2(DACHEX)]]", "system under test": "LoVo human colon carcinoma cells", "value": 70}
{"compound": "CC(=O)[O][Pt]1([Cl])[O]C(=O)C(=O)[O]1.NC1CC=CCC1N (racemic) [Complex 5, cis,trans,cis-[Pt(OXA)(AcO)Cl(DACHEX)]]", "system under test": "LoVo human colon carcinoma cells", "value": 250}
{"compound": "CC(=O)[O][Pt]1([O]C(C)=O)[O]C(=O)C(=O)[O]1.NC1CC=CCC1N [Complex 2, cis,trans,cis-[Pt(OXA)(AcO)2(DACHEX)]]", "system under test": "LoVo human colon carcinoma cells", "value": 590}

QUERY: Give measured IC50 for NC1CC=CCC1N.O=C1[O][Pt]([OH])([Cl])[O]C1=O (racemic) [Complex 6, cis,trans,cis-[Pt(OXA)(OH)Cl(DACHEX)]] (LoVo human colon carcinoma cells).
RESULT: 660

QUERY: Look up LoVo human colon carcinoma cells data: IC50 of NC1CC=CCC1N.O=C1[O][Pt]([Cl])([Cl])[O]C1=O (racemic) [Complex 4, cis,trans,cis-[Pt(OXA)Cl2(DACHEX)]] , then report it.
RESULT: 390

QUERY: Report value: IC50, system: LoVo human colon carcinoma cells, compound: [NH2][Pt]([NH2])([Cl])[Cl] [CDDP, cisplatin, reference compound]
RESULT: 7600

QUERY: GET IC50 where system = LoVo human colon carcinoma cells and item = O=C1[O][Pt]2([NH][C@@H]3CCCC[C@H]3[NH]2)[O]C1=O [OXP, oxaliplatin, reference compound]
RESULT: 1100

---

Listing: log10 IC50 of selected molecules
system: 2008 human ovarian cancer cells; experiment: MTT cytotoxicity test, 72 h; assay type: cell-based; settings: 2008, MTT
Could you please treat all values as log10 of IC50 in nM?

Solved entries:
{"molecule": "CC(=O)[O][Pt]1([O]C(C)=O)[O]C(=O)C(=O)[O]1.NC1CC=CCC1N [Complex 2, cis,trans,cis-[Pt(OXA)(AcO)2(DACHEX)]]", "system under test": "2008 human ovarian cancer cells", "log10 IC50": 2.52}
{"molecule": "CC(=O)[O][Pt]1([Cl])[O]C(=O)C(=O)[O]1.NC1CC=CCC1N (racemic) [Complex 5, cis,trans,cis-[Pt(OXA)(AcO)Cl(DACHEX)]]", "system under test": "2008 human ovarian cancer cells", "log10 IC50": 2.97}
{"molecule": "[NH2][Pt]([NH2])([Cl])[Cl] [CDDP, cisplatin, reference compound]", "system under test": "2008 human ovarian cancer cells", "log10 IC50": 3.35}

QUERY: Using known records, supply log10 IC50 for O=C1[O][Pt]2([NH][C@@H]3CCCC[C@H]3[NH]2)[O]C1=O [OXP, oxaliplatin, reference compound]
RESULT: 3.18

QUERY: Check the records and state log10 IC50 for NC1CC=CCC1N.O=C1[O][Pt]([OH])([Cl])[O]C1=O (racemic) [Complex 6, cis,trans,cis-[Pt(OXA)(OH)Cl(DACHEX)]]
RESULT: 3.27

QUERY: Identify measured log10 IC50 associated with NC1CC=CCC1N.O=C1[O][Pt]([Cl])([Cl])[O]C1=O (racemic) [Complex 4, cis,trans,cis-[Pt(OXA)Cl2(DACHEX)]]
RESULT: 2.62

QUERY: Tell me its log10 IC50 given NC1CC=CCC1N.O=C([O-])C(=O)[O-].O=C([O-])c1ccccc1.O=C([O-])c1ccccc1.[Pt+4] (mixture of isomers) [Complex 3, cis,trans,cis-[Pt(OXA)(BzO)2(DACHEX)]] as the entry.
RESULT: 2.15
